These measurements were taken from ChEMBL document CHEMBL4028907.

# System: Candida albicans
# PROCEDURE DETAILS: Antifungal activity against Candida albicans ATCC11651 after 24 hrs by two fold serial dilution method
# Type: functional
# COND: ATCC11651, 24 h
Attribute: MIC
Respond with the bare value in µg/mL.

Below, 4 compounds whose answers are already recorded.
| COMPOUND | TARGET UNDER TEST | MIC, µg/mL |
| --- | --- | --- |
| CCCCN(CCCC)CC(O)COc1cc2oc3cc(OCC(O)CN(CCCC)CCCC)c(OC)c(CC=C(C)C)c3c(=O)c2c(O)c1CC=C(C)C (stereo unspecified) | Candida albicans | 3.13 |
| C[C@@H]1C/C=C/C=C/C=C/C=C/[C@H](O[C@@H]2O[C@H](C)[C@@H](O)[C@H](N)[C@@H]2O)C[C@@H]2O[C@](O)(C[C@@H](O)C[C@H]3O[C@@H]3/C=C/C(=O)O1)C[C@H](O)[C@H]2C(=O)O | Candida albicans | 6.25 |
| CCCCN(C)CC(O)COc1cc2oc3cc(OCC(O)CN(C)CCCC)c(OC)c(CC=C(C)C)c3c(=O)c2c(O)c1CC=C(C)C (stereo unspecified) | Candida albicans | 6.25 |
| COc1c(OCC(O)CNC(=N)N)cc2oc3cc(OCC(O)CNC(=N)N)c(CC=C(C)C)c(O)c3c(=O)c2c1CC=C(C)C (stereo unspecified) | Candida albicans | 0.78 |

Inquiry: Endpoint output: MIC of CCCN(CCC)CC(O)COc1cc2oc3cc(OCC(O)CN(CCC)CCC)c(OC)c(CC=C(C)C)c3c(=O)c2c(O)c1CC=C(C)C (stereo unspecified) . Value?
Reply text: 6.25

Inquiry: Endpoint output: MIC of "CC[C@H](C)C[C@H](C)CCCCCCCCC(=O)N[C@H]1C[C@@H](O)[C@@H](NCCN)NC(=O)[C@@H]2[C@@H](O)CCN2C(=O)[C@H]([C@H](O)CCN)NC(=O)[C@H]([C@H](O)[C@@H](O)c2ccc(O)cc2)NC(=O)[C@@H]2C[C@@H](O)CN2C(=O)[C@H]([C@@H](C)O)NC1=O" . Value?
Reply text: 0.2

* * *

Attribute: MIC
# Tested on: Fusarium solani
# PROCEDURE DETAILS: Antifungal activity against Fusarium solani 46492 after 48 hrs by two fold serial dilution method
# Format: functional
# COND: Fusarium solani, 46492, 48 h

Below, 3 molecules whose answers are already recorded.
| MOLECULE | TARGET UNDER TEST | MEASURED ATTRIBUTE | VALUE |
| --- | --- | --- | --- |
| C[C@@H]1C/C=C/C=C/C=C/C=C/[C@H](O[C@@H]2O[C@H](C)[C@@H](O)[C@H](N)[C@@H]2O)C[C@@H]2O[C@](O)(C[C@@H](O)C[C@H]3O[C@@H]3/C=C/C(=O)O1)C[C@H](O)[C@H]2C(=O)O | Fusarium solani | MIC | 6.25 µg/mL |
| CCCCN(CCCC)CC(O)COc1cc2oc3cc(OCC(O)CN(CCCC)CCCC)c(OC)c(CC=C(C)C)c3c(=O)c2c(O)c1CC=C(C)C (centres undefined) | Fusarium solani | MIC | 6.25 µg/mL |
| CC[C@H](C)C[C@H](C)CCCCCCCCC(=O)N[C@H]1C[C@@H](O)[C@@H](NCCN)NC(=O)[C@@H]2[C@@H](O)CCN2C(=O)[C@H]([C@H](O)CCN)NC(=O)[C@H]([C@H](O)[C@@H](O)c2ccc(O)cc2)NC(=O)[C@@H]2C[C@@H](O)CN2C(=O)[C@H]([C@@H](C)O)NC1=O | Fusarium solani | MIC | > 50 µg/mL |

As a next step, examine the molecule that follows.
Inquiry: Endpoint output: MIC of COc1c(OCC(O)CNC(=N)N)cc2oc3cc(OCC(O)CNC(=N)N)c(CC=C(C)C)c(O)c3c(=O)c2c1CC=C(C)C (centres undefined) . Value?
Reply text: 3.13 µg/mL
